FYI, the data here is from ChEMBL document CHEMBL5375941.

Molecular target: Steroid 17-alpha-hydroxylase/17,20 lyase (Homo sapiens)
Sequence (P05093 whole entry): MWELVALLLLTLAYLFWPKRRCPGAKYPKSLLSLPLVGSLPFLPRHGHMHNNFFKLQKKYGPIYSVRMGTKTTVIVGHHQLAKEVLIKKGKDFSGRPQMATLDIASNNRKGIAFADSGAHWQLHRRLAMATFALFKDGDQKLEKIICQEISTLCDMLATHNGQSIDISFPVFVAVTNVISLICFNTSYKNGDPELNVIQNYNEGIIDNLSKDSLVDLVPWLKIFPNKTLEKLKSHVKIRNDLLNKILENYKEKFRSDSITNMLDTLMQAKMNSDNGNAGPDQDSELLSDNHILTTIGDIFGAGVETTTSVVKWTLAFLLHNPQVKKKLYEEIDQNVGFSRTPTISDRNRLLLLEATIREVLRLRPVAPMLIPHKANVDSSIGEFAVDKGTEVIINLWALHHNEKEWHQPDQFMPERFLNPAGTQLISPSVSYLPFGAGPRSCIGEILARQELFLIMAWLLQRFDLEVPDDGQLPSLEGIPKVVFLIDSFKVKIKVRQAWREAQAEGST

- Compound: "c1ccc2c(c1)CCC1C(c3ccncc3)C21 (stereo unspecified)"
  Target: "Steroid 17-alpha-hydroxylase/17,20 lyase (Homo sapiens)"
  IC50 (µM): 39.5

----------
Target: CYP450 (isoform not stated) (Homo sapiens, UniProt P04798+P05177+P05181+P08684+P10632+P10635+P11509+P11712+P13584+P20813+P20815+P20853+P24462+P24903+P33260+P33261+P51589+P78329+P98187+Q02928+Q08477+Q16678+Q16696+Q5TCH4+Q6VVX0+Q7Z449+Q8TAV3+Q96SQ9+Q9HB55)
Experiment: in vitro
Details: Liver
Reported endpoint: IC50

- Molecule: "Oc1cccc2c1CCC1C(c3ccncc3)C21 (configuration not stated)"
  Result: "6.05 µM"
- Molecule: "Oc1ccc2c(c1)CCC1C(c3ccncc3)C21 (configuration not stated)"
  Result: "2810 µM"
